These entries and their values trace back to PubChem BioAssay (NCI).

System: HS 578T breast
Test: NCI-60 one-dose screen, 48 h (100 = growth as untreated, 0 = no growth, -100 = all killed)
Conditions: 10 µM unless noted
The panel holds about 83,000 compounds, 20% with a hit somewhere; the sample as a whole holds those more often.
Entries and their measured growth follow.
All answers are understood in %, so give the number only.

Completed entries (count: 4):
Cc1cccc(NCC(=O)N2CCN(c3ncnc4c3cnn4-c3ccccc3)CC2)c1 :: 60.4
CC(C)(C)c1cc(-c2cc(-c3ccccc3)[nH]c(=O)c2C#N)cc(C(C)(C)C)c1 :: -3.49
CN1CCN(C(=O)Oc2cc3c(c4ccccc24)[C@H](CCl)CN3C(=O)c2cc3cc(OCCCN4CCC4)ccc3[nH]2)[C@H]2CSSC[C@H]21 :: -7.11
CC(C)(C)C(=O)C1CC(C#N)=C2C=Cc3c(ccc4ccccc34)N21 (configuration not stated) :: 30.6

// returns reported growth for input COc1ccc(-c2cc(C(=O)N=Nc3c(O)[nH]c4ccc(Cl)cc34)c3ccccc3n2)cc1OC
110

Lookup Cc1ccc(S(=O)(=O)N(CCn2ccnc2[N+](=O)[O-])CCn2ccnc2[N+](=O)[O-])cc1
103

Lookup O=C(c1ccc(Cl)cc1)C1[C@H](c2ccccc2Cl)[C@@H](c2ccccc2)NC12C(=O)Nc1ccc(Br)cc12 (some centres not stated)
-36

Lookup Cc1ccc(C(C(=O)NC2CCCCC2)N(Cc2ccccc2Cl)C(=O)c2ccc(CN3CCOCC3)o2)o1 (configuration not stated)
86

Lookup O=C(CSc1nc2c(c(=O)[nH]1)CCCC2)Nc1ccccc1C(=O)O
108
